Biological target: Alpha-1 adrenergic receptor (Sus scrofa)
Experiment: Displacement of [3H]-prazosin from alpha1-adrenergic receptor in pig cerebral cortex
pKi: −log10 of the molar value.
Readout label: pKi

[A] COc1ccccc1N1CCN(Cc2cn(CCOCCOCCF)nn2)CC1
[B] COc1ccccc1N1CCN(Cc2cn(CCCCCCF)nn2)CC1
Select one: A or B . Criterion: greater recorded pKi. Select an item and report its label.
B
